# system_name: 3T3-L1 adipocytes (Mus musculus, UniProt P16092+Q99N32)
# Sequence (Q99N32 whole entry): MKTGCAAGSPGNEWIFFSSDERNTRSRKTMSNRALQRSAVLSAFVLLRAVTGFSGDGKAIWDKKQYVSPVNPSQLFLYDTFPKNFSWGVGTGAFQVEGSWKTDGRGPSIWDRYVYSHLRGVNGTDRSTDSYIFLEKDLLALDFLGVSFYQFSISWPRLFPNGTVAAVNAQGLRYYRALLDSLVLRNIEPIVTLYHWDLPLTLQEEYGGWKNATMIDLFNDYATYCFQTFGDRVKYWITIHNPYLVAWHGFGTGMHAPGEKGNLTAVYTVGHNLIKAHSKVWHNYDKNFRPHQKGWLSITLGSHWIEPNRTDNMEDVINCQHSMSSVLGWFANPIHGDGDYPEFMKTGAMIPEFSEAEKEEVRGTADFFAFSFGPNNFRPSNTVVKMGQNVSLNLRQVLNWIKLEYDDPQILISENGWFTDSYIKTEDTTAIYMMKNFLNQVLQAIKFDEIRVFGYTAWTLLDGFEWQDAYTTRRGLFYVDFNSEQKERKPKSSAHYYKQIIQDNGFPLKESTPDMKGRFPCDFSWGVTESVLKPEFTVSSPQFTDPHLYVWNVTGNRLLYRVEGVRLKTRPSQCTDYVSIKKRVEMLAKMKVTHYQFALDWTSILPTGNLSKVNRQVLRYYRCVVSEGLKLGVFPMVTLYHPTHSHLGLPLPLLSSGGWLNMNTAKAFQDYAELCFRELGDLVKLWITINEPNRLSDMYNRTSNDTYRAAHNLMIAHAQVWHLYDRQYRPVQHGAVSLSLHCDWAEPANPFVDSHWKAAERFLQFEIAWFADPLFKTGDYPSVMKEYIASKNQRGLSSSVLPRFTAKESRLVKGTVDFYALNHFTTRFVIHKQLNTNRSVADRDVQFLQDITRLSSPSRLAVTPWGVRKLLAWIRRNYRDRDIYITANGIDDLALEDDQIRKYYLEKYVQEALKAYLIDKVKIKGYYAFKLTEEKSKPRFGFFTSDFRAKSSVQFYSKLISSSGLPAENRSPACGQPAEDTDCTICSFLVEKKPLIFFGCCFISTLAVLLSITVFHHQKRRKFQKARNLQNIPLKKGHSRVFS
# Sequence (P16092 22-822): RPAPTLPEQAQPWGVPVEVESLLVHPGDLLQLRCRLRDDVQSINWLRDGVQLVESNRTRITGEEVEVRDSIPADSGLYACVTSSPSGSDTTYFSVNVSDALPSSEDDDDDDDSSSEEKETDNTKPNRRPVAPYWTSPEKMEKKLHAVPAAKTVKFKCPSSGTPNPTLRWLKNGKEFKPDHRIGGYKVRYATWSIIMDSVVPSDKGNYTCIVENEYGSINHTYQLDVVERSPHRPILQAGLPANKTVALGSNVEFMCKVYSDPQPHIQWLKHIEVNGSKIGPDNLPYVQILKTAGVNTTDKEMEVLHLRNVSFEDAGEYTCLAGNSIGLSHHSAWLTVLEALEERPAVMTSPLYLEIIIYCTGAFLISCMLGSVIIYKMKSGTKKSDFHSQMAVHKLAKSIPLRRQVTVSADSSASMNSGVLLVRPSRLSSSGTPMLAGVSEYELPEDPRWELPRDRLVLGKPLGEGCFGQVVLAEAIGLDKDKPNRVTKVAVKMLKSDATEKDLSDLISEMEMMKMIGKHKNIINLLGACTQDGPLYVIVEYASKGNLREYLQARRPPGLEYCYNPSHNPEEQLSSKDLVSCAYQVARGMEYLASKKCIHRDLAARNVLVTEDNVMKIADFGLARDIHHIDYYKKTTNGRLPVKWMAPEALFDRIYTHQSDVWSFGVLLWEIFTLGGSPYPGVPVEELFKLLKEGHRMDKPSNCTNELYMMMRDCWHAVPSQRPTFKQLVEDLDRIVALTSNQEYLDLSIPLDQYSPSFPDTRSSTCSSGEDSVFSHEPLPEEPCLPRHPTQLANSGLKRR
# assay_overview: Glucose uptake in 3T3-L1 adipocytes
# Type: cell-based
# condition: stimulated 20 hours, 3H-deoxy-glucose
recorded_endpoint: Glucose uptake Emax (%)
Express your answer in %, writing the number without its unit.

# molecule, Glucose uptake Emax [%]
rows = [
    ("S{Beta-181}-[2-[2-[[2-[2-[2-[[2-[2-[2-[[(4S)-4-carboxy-4-(15-carboxypentadecanoyl-amino)butanoyl]amino]ethoxy]ethoxy]acetyl]amino]ethoxy]ethoxy]acetyl]amino]-ethylamino]-2-oxoethyl]-Ala[Gln121,Leu168, … (protein) HPIPDSSPLLQFGGQVRQRYLYTDDAQQTEAHLEIREDGTVGGAADQSPESLLQLKALKPGVIQILGVKTSRFLCQRPDGALYGSLHFDPEACSFRELLLEDGYNVYQSEAHGLPLHLPGQKSPHRDPAPRGPARFLPLPGLPPALPEPPGILAPQPPDVGSSDPLSLVGPSQGRSPSYAC", 61),
    ("S{Beta-180}-[2-[2-[[2-[2-[2-[[2-[2-[2-[[(4S)-4-carboxy-4-(11-carboxyundecanoyl-amino)butanoyl]amino]ethoxy]ethoxy]acetyl]amino]ethoxy]ethoxy]acetyl]amino]-ethylamino]-2-oxoethyl]-Ala[Gln121,Leu168,Cys … (protein) HPIPDSSPLLQFGGQVRQRYLYTDDAQQTEAHLEIREDGTVGGAADQSPESLLQLKALKPGVIQILGVKTSRFLCQRPDGALYGSLHFDPEACSFRELLLEDGYNVYQSEAHGLPLHLPGQKSPHRDPAPRGPARFLPLPGLPPALPEPPGILAPQPPDVGSSDPLSLVGPSQGRSPSYCS", 87),
    ("S{Beta-178}-2-aminoethylsulfanyl-Ala[Gln121, Leu168, Cys178]FGF21 (protein, N-terminal Ala; cysteamine disulfide on Cys178) AHPIPDSSPLLQFGGQVRQRYLYTDDAQQTEAHLEIREDGTVGGAADQSPESLLQLKALKPGVIQILGVKTSRFLCQRPDGALYGSLHFDPEACSFRELLLEDGYNVYQSEAHGLPLHLPGQKSPHRDPAPRGPARFLPLPGLPPALPEPPGILAPQPPDVGSSDPLSLVGPSQGRSPCYAS", 69),
]

Please find the next molecule below.
query: Suppose we examine the molecule S{Beta-179}-2-aminoethylsulfanyl-Ala[Gln121, Leu168, Cys179]FGF21 (protein, N-terminal Ala; cysteamine disulfide on Cys179) AHPIPDSSPLLQFGGQVRQRYLYTDDAQQTEAHLEIREDGTVGGAADQSPESLLQLKALKPGVIQILGVKTSRFLCQRPDGALYGSLHFDPEACSFRELLLEDGYNVYQSEAHGLPLHLPGQKSPHRDPAPRGPARFLPLPGLPPALPEPPGILAPQPPDVGSSDPLSLVGPSQGRSPSCAS ; what Glucose uptake Emax value has been reported?
result: 77
